# Measurement protocol: BET inhibitor-based combinations targeting novel dependencies in MECOM-rearranged (r) AML: OCI-AML3 cell line (AID 2202232); further: nearly all actives have a fitted effect of over 35% in size
# Measurement parameters: CellTiter-Glo luminescence, 48 h; OCI-AML3 viability; series mostly up to 46 µM
# Experimental: Ecotropic viral insertion site 1 (EVI1) is located on chromosome 3q26.2 as part of the MECOM (MDS and EVI1 complex) locus. […] A collection of 2480 mechanistically annotated dugs (MIPE v5.0) was used to screen four 3q26.2 rearranged AML cell lines and three non-3q26.2 rearranged AML cell lines. […] Cell viability was determined by luminescence based, Cell Titer Glo assay (Promega). […] Luminescence readings were taken using a Viewlux (PerkinElmer) with a 2 s exposure time per plate. […]
Records with an inconclusive call do not appear. Calls of active or inactive are those of the source. The call rests on the fitted dose curve; in most records, active means well fitted inhibition curve with a large enough effect; inconclusive means small, poorly fitted or top-dose-only effect; inactive means no such curve, though single readings can be large or run the other way.
Outcomes: active, inactive

compound="COC1CCC(C(=O)c2ccc3nc4c(cc3c2)CCCO4)CC1 (centres undefined)" group=inactive
compound=COC[C@H](NC(=O)c1cnc(C)s1)C(=O)N[C@@H](COC)C(=O)N[C@@H](Cc1ccccc1)C(=O)[C@@]1(C)CO1 group=active
compound=O=C(O)CCCCCC(=O)NN=C1CCCC1 group=inactive
compound=CN1CCN(Cc2ccc(NC(=O)Nc3ccc(Oc4cc(NC(=O)C5CC5)ncn4)cc3)cc2C(F)(F)F)CC1 group=active
compound=Fc1ccc(-c2nc(-c3ccccc3F)[nH]c2-c2ccncc2)cc1 group=inactive
compound=FC(F)c1nc2ccccc2n1-c1nc(N2CCOCC2)nc(N2CCOCC2)n1 group=active
compound=O=C(CCl)Nc1cccc(NC2=NS(=O)(=O)c3ccccc32)c1 group=active
compound="Oc1ccc(C2CNCCc3c2cc(O)c(O)c3Cl)cc1 (centres undefined)" group=inactive
compound=Clc1ccccc1CN1CCc2sccc2C1 group=inactive
compound=O=c1c(O)c(-c2ccc(O)cc2O)oc2cc(O)cc(O)c12 group=inactive
compound="CN(C(Cc1ccc(OS(=O)(=O)c2cccc3cnccc23)cc1)C(=O)N1CCN(c2ccccc2)CC1)S(=O)(=O)c1cccc2cnccc12 (centres undefined)" group=inactive
compound=O=c1[nH]nc(Sc2ncc([N+](=O)[O-])s2)n1-c1ccc2c(c1)OCCO2 group=active
compound=CC(=O)OCC(=O)[C@@]12N=C(C)O[C@@H]1C[C@H]1[C@@H]3CCC4=CC(=O)C=C[C@]4(C)[C@H]3[C@@H](O)C[C@@]12C group=inactive
compound="CC(C(C)N1CC(=O)NC(=O)C1)N1CC(=O)NC(=O)C1 (centres undefined)" group=active
compound=CS(=O)(=O)c1ccc(C2=C(c3ccccc3)C(=O)OC2)cc1 group=inactive
compound=NC[C@H](O)c1ccc(O)c(O)c1 group=inactive
compound=COc1ccc(-c2cc(=O)c3c(O)cc(O[C@@H]4O[C@H](CO[C@@H]5O[C@@H](C)[C@H](O)[C@@H](O)[C@H]5O)[C@@H](O)[C@H](O)[C@H]4O)cc3o2)cc1O group=inactive
compound="CCOC(=O)C1=C(N)Oc2ccc(Br)cc2C1C(C#N)C(=O)OCC (centres undefined)" group=inactive
compound=Cc1cccc(-c2[nH]ncc2-c2ccc3ncccc3n2)n1 group=inactive
compound=COc1cccc2c1c(O)c(C(=O)N(C)c1ccc(C(F)(F)F)cc1)c(=O)n2C group=inactive
compound=CC(C)Nc1cc(-c2c[nH]c(C(=O)N[C@H](CO)c3cccc(Cl)c3)c2)c(Cl)cn1 group=active
compound=Cc1cc2c(s1)Nc1ccccc1N=C2N1CCN(C)CC1 group=inactive
compound=COc1cc2c(NC3CCN(C(C)C)CC3)nc(C3CCCCC3)nc2cc1OCCCN1CCCC1 group=active
compound=CC(C)c1noc(N2CCC(COc3ccc(-c4ccc(S(C)(=O)=O)cc4)nc3)CC2)n1 group=active
compound="CCOCC(O)COc1ccc(NC(=O)CC[S+](C)C)cc1 (centres undefined)" group=inactive
compound=COc1cccc2c1C(=O)c1c(O)c3c(c(O)c1C2=O)C[C@@](O)(C(=O)CO)C[C@@H]3O[C@H]1C[C@H](N)[C@@H](O)[C@H](C)O1 group=active
compound=COc1ccc(-n2nc(C(N)=O)c3c2C(=O)N(c2ccc(N4CCCCC4=O)cc2)CC3)cc1 group=inactive
compound=c1ccc(CNc2nc(N3CCOc4ccccc43)nc3c2CCCC3)cc1 group=inactive
compound=OCc1ccccc1O[C@@H]1O[C@H](CO)[C@@H](O)[C@H](O)[C@H]1O group=inactive
